System tested: EPHA2 (human) (UniProt P29317)
Sequence (P29317 whole entry, looked up): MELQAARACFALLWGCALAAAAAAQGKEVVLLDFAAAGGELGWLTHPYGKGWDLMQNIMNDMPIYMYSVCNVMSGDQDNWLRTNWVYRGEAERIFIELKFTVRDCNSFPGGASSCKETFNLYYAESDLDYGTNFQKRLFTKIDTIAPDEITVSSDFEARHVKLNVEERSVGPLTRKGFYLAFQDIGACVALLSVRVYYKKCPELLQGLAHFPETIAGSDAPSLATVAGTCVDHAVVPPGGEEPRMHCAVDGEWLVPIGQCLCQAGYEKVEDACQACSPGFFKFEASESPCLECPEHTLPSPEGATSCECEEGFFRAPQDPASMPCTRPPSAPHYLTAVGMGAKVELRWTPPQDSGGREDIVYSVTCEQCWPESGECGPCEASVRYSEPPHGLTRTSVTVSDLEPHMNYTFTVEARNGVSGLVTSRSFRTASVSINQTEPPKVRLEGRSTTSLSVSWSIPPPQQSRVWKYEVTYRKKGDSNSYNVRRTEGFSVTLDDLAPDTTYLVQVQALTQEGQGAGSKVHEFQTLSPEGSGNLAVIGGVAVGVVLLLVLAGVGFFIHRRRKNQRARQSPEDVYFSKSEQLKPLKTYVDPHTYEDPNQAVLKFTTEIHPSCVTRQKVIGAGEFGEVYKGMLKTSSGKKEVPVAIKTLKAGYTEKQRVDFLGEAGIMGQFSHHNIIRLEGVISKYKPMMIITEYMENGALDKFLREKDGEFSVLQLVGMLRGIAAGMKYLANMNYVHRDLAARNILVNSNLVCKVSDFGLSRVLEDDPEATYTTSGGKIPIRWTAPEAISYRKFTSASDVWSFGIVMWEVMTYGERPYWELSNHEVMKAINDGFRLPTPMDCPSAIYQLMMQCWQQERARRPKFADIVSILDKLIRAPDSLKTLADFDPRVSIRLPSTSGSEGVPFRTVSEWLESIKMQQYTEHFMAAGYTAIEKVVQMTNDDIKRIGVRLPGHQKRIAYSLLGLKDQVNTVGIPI
Experiment description: KINOMEscan competition binding
Recorded conditions: compound 10.0 µM
# key: entry, value: kinase still bound, per cent of control
Observed property: kinase still bound, per cent of control (%)

1) CCCS(=O)(=O)Nc1ccc(F)c(C(=O)c2c[nH]c3ncc(Cl)cc23)c1F | 100
2) Cc1cn(-c2cc(C(=O)Nc3ccc(C)c(NC(=O)c4ccno4)c3)cc(C(F)(F)F)c2)cn1 | 1.6
3) N#Cc1cc(-c2ccnc(Nc3ccc(-n4cnc(-c5cccnc5)n4)cc3)n2)cc(N2CCOCC2)c1 | 56
4) COc1ccc(N(C(=O)Oc2cc(C(=O)Nc3cccc(C(F)(F)F)c3)ccc2C)c2ccnc(Nc3ccc(N4CCN(C)CC4)cc3)n2)c(OC)c1 | 4.2
5) CCN(CCO)CCCOc1ccc2c(Nc3cc(CC(=O)Nc4cccc(F)c4)[nH]n3)ncnc2c1 | 76
6) N#C/C(=C1/Nc2ccccc2S1)c1ccnc(NCCc2cccnc2)n1 | 80
7) COc1cc(N2CCC(C(N)=O)CC2)ccc1Nc1nc(N)c(Cl)c(Nc2ccccc2S(=O)(=O)C(C)C)n1 | 100
8) CC1=C(C(=O)Nc2cc3cn[nH]c3cc2F)C(c2ccc(C(F)(F)F)cc2)CC(=O)N1 (stereo not drawn) | 84
9) COc1cc(C)c(Sc2cnc(NC(=O)c3ccc(CNC(C)C(C)C)cc3)s2)cc1C(=O)N1CCN(C(C)=O)CC1 (stereo not drawn) | 25
10) COc1cc2c(Nc3ccc(NC(=O)c4ccccc4)cc3)ncnc2cc1OCCCN1CCOCC1 | 84
11) COc1cc2ncnc(Nc3cccc(Cl)c3)c2cc1OC | 62
12) O=c1[nH]c2ccccc2n1C1CCN(Cc2ccc(-c3nc4cc5[nH]cnc5cc4nc3-c3ccccc3)cc2)CC1 | 100
13) CC(=O)c1c(C)c2cnc(Nc3ccc(N4CCNCC4)cn3)nc2n(C2CCCC2)c1=O | 95
14) CCOc1cc(N2CCC(O)CC2)ccc1Nc1ncc2c(n1)N(C)c1ccccc1C(=O)N2C | 100
15) C=CC(=O)Nc1ccc(C(=O)c2sc(Nc3ccc(N4CCN(C)CC4)cc3OC)nc2N)cc1 | 96
16) CNC(=O)Nc1ccc(-c2nc(N3CC4CCC(C3)O4)c3cnn(C4CCC5(CC4)OCCO5)c3n2)cc1 | 81
17) CCN1CCN(Cc2ccc(NC(=O)c3ccc(C)c(/C=C/c4cnc5[nH]ccc5c4OC)c3)cc2C(F)(F)F)CC1 | 1.7
18) CCc1nc(-c2cccc(C)c2)c(-c2ccnc(NC(=O)c3ccccc3)c2)s1 | 66

Hey, just so you know, these numbers are from the kinase profiling compilation of Christmann-Franck et al. (2016).
